- Tested on: Caco-2 cell monolayer
- experiment-description: Caco-2 transepithelial transport assay of digested red wine
- Assay type: in vitro ADME, human
- run-parameters: Caco-2
Marks after values point to notes of the source that are not given here.
Collected PC Contents, Tianzhu, Transmembrane values appear next to each entry.

Lab note: COc1cc(/C=C/C(=O)OC(C(=O)O)C(O)C(=O)O)ccc1O (stereo not drawn) gave PC Contents, Tianzhu, Transmembrane of 0.82 ± 0.03 ^a mg/L

* * *

- System: Caco-2 cell monolayer
- experiment-description: Caco-2 transepithelial transport assay of digested red wine
- Format: in vitro ADME, human
- run-parameters: Tianzhu red wine, digested sample, basolateral side of Caco-2 monolayer
Marks after values point to notes of the source that are not given here.
readout: PC Contents, Tianzhu, Transmembrane

Please review the entries below; each comes with its answer.
Lab note: `O=C(/C=C/c1ccc(O)c(O)c1)O[C@@H](C(=O)O)[C@@H](O)C(=O)O` gave PC Contents, Tianzhu, Transmembrane of 1.07 ± 0.03 ^a mg/L

Lab note: O=c1c(OC2O[C@H](CO)[C@@H](O)[C@H](O)[C@H]2O)c(-c2cc(O)c(O)c(O)c2)oc2cc(O)cc(O)c12 (some centres unmarked) gave PC Contents, Tianzhu, Transmembrane of 8.61 ± 0.43 ^a mg/L

Lab note: O=c1c(O[C@@H]2O[C@H](CO)[C@@H](O)[C@H](O)[C@H]2O)c(-c2ccc(O)c(O)c2)oc2cc(O)cc(O)c12 [Quercetin-3-glc] gave PC Contents, Tianzhu, Transmembrane of 37.54 ± 1.95 ^a mg/L

Lab note: `COc1cc(-c2[o+]c3cc(O)cc(O)c3cc2O[C@@H]2O[C@H](COC(C)=O)[C@@H](O)[C@H](O)[C@H]2O)cc(OC)c1O` gave PC Contents, Tianzhu, Transmembrane of 7.83 ± 0.23 ^a mg/L

***
Lab note: `C[C@@H]1O[C@@H](O[C@H]2C(=O)c3c(O)cc(O)cc3O[C@@H]2c2ccc(O)c(O)c2)[C@H](O)[C@H](O)[C@H]1O` gave PC Contents, Tianzhu, Transmembrane of 5.05 ± 0.19 ^a mg/L

* * *

- Tested on: Caco-2 cell monolayer
- experiment-description: Caco-2 transepithelial transport assay of digested red wine
- Type: in vitro ADME, human
- run-parameters: Caco-2
Marks after values point to notes of the source that are not given here.
Collected Apparent Permeability Coefficients, Helanshan values appear next to each entry.

Please review the entries below; each comes with its answer.
Lab note: COc1cc(-c2[o+]c3cc(O)cc(O)c3cc2OC2OC(COC(C)=O)C(O)C(O)C2O)cc(O)c1O (stereo not shown) [Petunidin-3-acglc] gave Apparent Permeability Coefficients, Helanshan of 11.78 ± 2.11 ^a ×10^−6 cm/s

Lab note: O.Oc1cc(O)c2c(c1)O[C@H](c1ccc(O)c(O)c1)[C@@H](O)C2 [Catechin] gave Apparent Permeability Coefficients, Helanshan of 7.69 ± 1.23 ^a ×10^−6 cm/s

Lab note: COc1cc(-c2oc3cc(O)cc(O)c3c(=O)c2O[C@@H]2O[C@H](CO)[C@@H](O)[C@H](O)[C@H]2O)cc(O)c1O [Laricitrin-3-glc] gave Apparent Permeability Coefficients, Helanshan of 1.83 ± 0.16 ^a ×10^−6 cm/s

Lab note: COc1cc(-c2oc3cc(O)cc(O)c3c(=O)c2O[C@@H]2O[C@H](CO)[C@@H](O)[C@H](O)[C@H]2O)cc(OC)c1O [Syringetin-3-glc] gave Apparent Permeability Coefficients, Helanshan of 2.81 ± 0.29 ^a ×10^−6 cm/s

Lab note: COc1cc(-c2[o+]c3cc(O)cc(O)c3cc2O[C@@H]2O[C@H](CO)[C@@H](O)[C@H](O)[C@H]2O)cc(O)c1O [Petunidin-3-glc] gave Apparent Permeability Coefficients, Helanshan of 17.56 ± 3.32 ^a ×10^−6 cm/s

Lab note: O=C(/C=C/c1ccc(O)cc1)O[C@@H](C(=O)O)[C@@H](O)C(=O)O [Coutaric acid] gave Apparent Permeability Coefficients, Helanshan of 12.91 ± 1.32 ^a ×10^−6 cm/s

Query compound follows.
Lab note: COc1cc(/C=C/C(=O)OC(C(=O)O)C(O)C(=O)O)ccc1O (stereo not shown) [Fertaric acid] gave Apparent Permeability Coefficients, Helanshan of 27.9 ± 3.64 ^a ×10^−6 cm/s

Data origin, for the record: paper PMC9562916
